# assay system: T1, integrin αVβ3 (UniProt P06756 31-992; P05106 27-718)
# T1 construct: Coated on the ELISA plate
# T1 sequence (P06756 31-992, chain 1 of 2): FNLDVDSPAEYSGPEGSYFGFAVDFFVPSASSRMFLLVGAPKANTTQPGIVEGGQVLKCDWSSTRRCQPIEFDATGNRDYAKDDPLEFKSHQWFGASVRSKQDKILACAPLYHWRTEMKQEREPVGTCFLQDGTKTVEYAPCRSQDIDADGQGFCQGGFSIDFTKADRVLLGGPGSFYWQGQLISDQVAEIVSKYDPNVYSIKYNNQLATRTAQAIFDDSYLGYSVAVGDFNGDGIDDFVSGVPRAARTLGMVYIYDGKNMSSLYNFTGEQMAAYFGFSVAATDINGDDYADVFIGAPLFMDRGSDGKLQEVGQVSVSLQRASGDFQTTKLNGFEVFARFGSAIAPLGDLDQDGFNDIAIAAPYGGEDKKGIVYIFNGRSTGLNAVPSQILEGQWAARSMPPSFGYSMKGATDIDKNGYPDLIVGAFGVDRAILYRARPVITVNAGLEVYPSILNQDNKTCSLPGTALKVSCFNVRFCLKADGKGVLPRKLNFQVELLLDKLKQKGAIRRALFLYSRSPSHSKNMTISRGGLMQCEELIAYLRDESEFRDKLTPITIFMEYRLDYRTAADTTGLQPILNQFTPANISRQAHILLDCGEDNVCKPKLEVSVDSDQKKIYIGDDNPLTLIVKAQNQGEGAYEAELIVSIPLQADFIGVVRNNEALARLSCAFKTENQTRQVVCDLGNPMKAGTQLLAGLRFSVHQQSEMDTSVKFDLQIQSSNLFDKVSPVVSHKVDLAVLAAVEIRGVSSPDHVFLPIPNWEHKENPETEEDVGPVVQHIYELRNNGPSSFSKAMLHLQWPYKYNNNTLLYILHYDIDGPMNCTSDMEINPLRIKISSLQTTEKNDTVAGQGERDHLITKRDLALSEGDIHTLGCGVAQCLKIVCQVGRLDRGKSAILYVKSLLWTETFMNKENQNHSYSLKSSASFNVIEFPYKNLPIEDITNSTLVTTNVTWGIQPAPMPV
# T1 sequence (P05106 27-718, chain 2 of 2): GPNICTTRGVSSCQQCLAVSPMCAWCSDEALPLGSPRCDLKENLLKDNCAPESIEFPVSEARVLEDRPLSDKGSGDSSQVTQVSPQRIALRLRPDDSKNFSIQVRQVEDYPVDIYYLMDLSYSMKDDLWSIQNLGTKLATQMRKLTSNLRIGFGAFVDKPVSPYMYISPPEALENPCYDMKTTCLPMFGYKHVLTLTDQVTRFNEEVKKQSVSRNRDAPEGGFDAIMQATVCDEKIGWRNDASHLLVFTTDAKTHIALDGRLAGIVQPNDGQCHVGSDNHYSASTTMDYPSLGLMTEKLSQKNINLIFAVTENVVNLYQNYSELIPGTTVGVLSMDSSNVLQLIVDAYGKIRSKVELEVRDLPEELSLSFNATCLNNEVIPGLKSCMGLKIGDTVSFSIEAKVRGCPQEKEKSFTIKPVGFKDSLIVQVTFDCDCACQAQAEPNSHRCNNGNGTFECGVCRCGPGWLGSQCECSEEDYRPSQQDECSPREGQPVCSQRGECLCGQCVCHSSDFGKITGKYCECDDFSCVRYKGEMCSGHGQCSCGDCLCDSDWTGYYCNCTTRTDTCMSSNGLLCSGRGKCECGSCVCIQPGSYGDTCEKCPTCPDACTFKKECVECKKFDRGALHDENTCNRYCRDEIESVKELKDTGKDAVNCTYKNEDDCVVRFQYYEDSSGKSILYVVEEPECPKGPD
# assay summary: ELISA, coated integrin, anti-MICA-HRP
Assignment: determine reported αvβ3 signal for the given binders.
Write it as a number; the unit OD goes unstated.

Ask: Can you look up the measured αvβ3 signal of soluble MICA generated from pKK37 (loop 1 insert 3.2) (designed binder, From pKK34 (His6, Glu125); secreted by 293T cells; also called 1-3.2) HHHHHHEPHSLRYNLTVLSWDGSVQSGFLTEVHLDGQPFLRCDRQKCRAKPQGQWAEDVLGNKTWDRETRDLTGNGKDLRMTLAHIKDQKEGLHSLQEIRVCEIHEDNSTRSSQHFYYDGELFLSQNLETEEWTMPQSSRAQTLAMNVRNFLKEDAMKTKTHYHAMHADCLQELRRYLKSGVVLRRTVPPMVNVTRTSRGDHPRTQVTCRASGFYPWNITLSWRQDGVSLSHDTQQWGDVLPDGNGTYQTWVATRICQGEEQRFTCYMEHSGNHSTHPVPSGK for me?
Reply: 0.777

Ask: Now give it for soluble MICA generated from pKK42 (loop 1 insert 5.3) (designed binder, From pKK34 (His6, Glu125); secreted by 293T cells; also called 1-5.3) HHHHHHEPHSLRYNLTVLSWDGSVQSGFLTEVHLDGQPFLRCDRQKCRAKPQGQWAEDVLGNKTWDRETRDLTGNGKDLRMTLAHIKDQKEGLHSLQEIRVCEIHEDNSTRSSQHFYYDGELFLSQNLETEEWTMPQSSRAQTLAMNVRNFLKEDAMKTKTHYHAMHADCLQELRRYLKSGVVLRRTVPPMVNVTHLARGDDLTYVTCRASGFYPWNITLSWRQDGVSLSHDTQQWGDVLPDGNGTYQTWVATRICQGEEQRFTCYMEHSGNHSTHPVPSGK too.
Reply: 0.526

Ask: Subsequent entry: soluble MICA generated from pKK51 (loop 3 insert extended 5.3sp) (designed binder, From pSW276 (no N-terminal His tag, Lys125); secreted by 293T cells; also called 3-5.3sp) EPHSLRYNLTVLSWDGSVQSGFLTEVHLDGQPFLRCDRQKCRAKPQGQWAEDVLGNKTWDRETRDLTGNGKDLRMTLAHIKDQKEGLHSLQEIRVCEIHEDNSTRSSQHFYYDGELFLSQNLETKEWTMPQSSRAQTLAMNVRNFLKEDAMKTKTHYHAMHADCLQELRRYLKSGVVLRRTVPPMVNVTRSEASEGNITVTCRASGFYPWNITLSWRQDGVSLSHDTQQWGDVLPDGNGTYQTWVATRISGGSGGGSHLARGDDLTYSGGSGGGCYMEHSGNHSTHPVPSGK
Reply: 0.694

Ask: Here is the next binder: soluble MICA generated from pKK41 (loop 1 insert 5.2) (designed binder, From pKK34 (His6, Glu125); secreted by 293T cells; also called 1-5.2) HHHHHHEPHSLRYNLTVLSWDGSVQSGFLTEVHLDGQPFLRCDRQKCRAKPQGQWAEDVLGNKTWDRETRDLTGNGKDLRMTLAHIKDQKEGLHSLQEIRVCEIHEDNSTRSSQHFYYDGELFLSQNLETEEWTMPQSSRAQTLAMNVRNFLKEDAMKTKTHYHAMHADCLQELRRYLKSGVVLRRTVPPMVNVTRGDTFTQSVTCRASGFYPWNITLSWRQDGVSLSHDTQQWGDVLPDGNGTYQTWVATRICQGEEQRFTCYMEHSGNHSTHPVPSGK
Reply: 0.516

Ask: Similarly, soluble MICA generated from pKK54 (tight loop 1 insert T-3.3) (designed binder, From pSW324 (from pKK34: His6, Glu125); secreted by 293T cells; also called 1-T-3.3) HHHHHHEPHSLRYNLTVLSWDGSVQSGFLTEVHLDGQPFLRCDRQKCRAKPQGQWAEDVLGNKTWDRETRDLTGNGKDLRMTLAHIKDQKEGLHSLQEIRVCEIHEDNSTRSSQHFYYDGELFLSQNLETEEWTMPQSSRAQTLAMNVRNFLKEDAMKTKTHYHAMHADCLQELRRYLKSGVVLRRTVPPMVNRVPRGDSDLTCRASGFYPWNITLSWRQDGVSLSHDTQQWGDVLPDGNGTYQTWVATRICQGEEQRFTCYMEHSGNHSTHPVPSGK ?
Reply: 0.177

Ask: Same for soluble MICA generated from pKK50 (loop 3 insert extended 5.1sp) (designed binder, From pSW276 (no N-terminal His tag, Lys125); secreted by 293T cells; also called 3-5.1sp) EPHSLRYNLTVLSWDGSVQSGFLTEVHLDGQPFLRCDRQKCRAKPQGQWAEDVLGNKTWDRETRDLTGNGKDLRMTLAHIKDQKEGLHSLQEIRVCEIHEDNSTRSSQHFYYDGELFLSQNLETKEWTMPQSSRAQTLAMNVRNFLKEDAMKTKTHYHAMHADCLQELRRYLKSGVVLRRTVPPMVNVTRSEASEGNITVTCRASGFYPWNITLSWRQDGVSLSHDTQQWGDVLPDGNGTYQTWVATRISGGSGGGSVTRGDTFTQSSGGSGGGCYMEHSGNHSTHPVPSGK
Reply: 0.546
